- target-of-assay: AgAbp1
- assay-info: SPOT peptide array binding signal intensity (averaged, normalized) (arbitrary units (background-subtracted, floor 0; scale differs between SH3 domains)); higher = stronger binding of the SH3 domain to the peptide
endpoint: SPOT peptide array binding signal intensity
Just the number, please, no unit after it.

Below, 5 binders whose answers are already recorded.
> print(dat)
            binder  assay.result
1  DKSRPPRPPPKPLHL          1130
2  TYNRTAFQIPGDQSI             1
3  APKREAPKPPANTSP             1
4  KKEKKPPKIPKKVYT          2950
5  VQQDSLPKLPFRSWG           9.5

For "LKHGWKPLRPIKLIS" , write its SPOT peptide array binding signal intensity.
1400

For "VTHRLRISIPGITGR" , write its SPOT peptide array binding signal intensity.
9

For "STKKPRPPVKSKPKH" , write its SPOT peptide array binding signal intensity.
553

For "KDKSRPPRPPPKPLH" , write its SPOT peptide array binding signal intensity.
917

For "ANNQGPPNLPARDKS" , write its SPOT peptide array binding signal intensity.
4.5

For "APERAVPILPPRNNV" , write its SPOT peptide array binding signal intensity.
7.5

For "PKMLPIPSKPTLFDL" , write its SPOT peptide array binding signal intensity.
47

Provenance of the data: the supplement of paper PMC4466140
